B1: CPEB3 Ribozyme (parent)
chain: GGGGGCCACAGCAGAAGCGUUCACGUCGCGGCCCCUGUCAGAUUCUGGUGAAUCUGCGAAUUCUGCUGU

Variants of: B1
ASSAY COMMENT: self-cleavage, relative activity (ratio to wild type); higher = more cleavage; co-transcriptional
Mark false for self-cleavage values under 0.6, and true for everything at or above.

Solved entries (count: 6):
U61A G65U
false
C33G G50U
false
G11U C27A
false
G19C U20A
false
C22U G58C
false
U20C U64C
false

Challenge: Could you verify whether the entry G5A C24A shows self-cleavage of no less than 0.6?
Response given: false

Challenge: Could you verify whether the entry G30A G41C shows self-cleavage of no less than 0.6?
Response given: false

Challenge: Could you verify whether the entry U46G U64A shows self-cleavage of no less than 0.6?
Response given: true

Challenge: Could you verify whether the entry G48A C63U shows self-cleavage of no less than 0.6?
Response given: true

Challenge: Could you verify whether the entry C33A U62A shows self-cleavage of no less than 0.6?
Response given: false
